- Test system: Single-donor human red blood cells
- experimental.details: Hemolysis assay
- Assay type: cell-based
Bridge positions count the residues as written; N and C are the ends. Ends that are not written are not given here.
hemolysis reference
recorded.metric: hemolysis (%)

>>> quantitative_readout("CLTVRLDNRGRGLKISVEVC (disulfide 1-20 (inferred)) [SySA-60]")
0.53
>>> quantitative_readout("CRIRINIDNRSGTVRLEVQC (disulfide 1-20 (inferred)) [SySA-3]")
0.24
>>> quantitative_readout("CVRVRVDNRGSRVKVTVQVC (disulfide 1-20 (inferred)) [SySA-12]")
0.30
>>> quantitative_readout("CLTIRVNNRRGRVRISVQVC (disulfide 1-20 (inferred)) [SySA-15]")
0.80
>>> quantitative_readout("CVTVRVNNRGSRLKVSVEVC (disulfide 1-20 (inferred)) [SySA-18]")
0.60
>>> quantitative_readout("CVTVRVNNRGRGLRISLQVC (disulfide 1-20 (inferred)) [SySA-47]")
0.48
>>> quantitative_readout("CRIKIDVDNRRRTLKLQLEC (disulfide 1-20 (inferred)) [SySA-74]")
0.72
>>> quantitative_readout("CRIRIDVNNRSGTLKLQVQC (disulfide 1-20 (inferred)) [SySA-36]")
-0.0122
>>> quantitative_readout("CRVKINVNNRGRTLKLELEC (disulfide 1-20 (inferred)) [SySA-58]")
0.000315

---

- System: Single-donor human red blood cells
- experimental.details: Hemolysis assay
- Format: cell-based
Bridge positions count the residues as written; N and C are the ends. Ends that are not written are not given here.
recorded.metric: hemolysis (%)

>>> quantitative_readout("CRVKVNINNGSRRLRLQVQC (disulfide 1-20 (inferred)) [SySA-50]")
0.34
>>> quantitative_readout("CLRIRLNNRRSRVRISVEVC (disulfide 1-20 (inferred)) [SySA-52]")
9.99
>>> quantitative_readout("CRVKINVDNRSGRVKLELQC (disulfide 1-20 (inferred)) [SySA-69]")
0.72
>>> quantitative_readout("CRIRINVNNRGRTLKLEVQC (disulfide 1-20 (inferred)) [SySA-10]")
0.40
>>> quantitative_readout("CVRIRLNNGGSGVKVTVEVC (disulfide 1-20 (inferred)) [SySA-85]")
1.81

---

- Test system: Single-donor human red blood cells
- experimental.details: Hemolysis assay
- Assay type: cell-based
Bridge positions count the residues as written; N and C are the ends. Ends that are not written are not given here.
recorded.metric: hemolysis (%)

>>> quantitative_readout("CLRIRVDNRGSGVKVTLEVC (disulfide 1-20 (inferred)) [SySA-57]")
0.25
>>> quantitative_readout("CVTIRVDNRGSRLKISVQVC (disulfide 1-20 (inferred)) [SySA-33]")
0.26
>>> quantitative_readout("CLTVRLDNRGSGLRITVEVC (disulfide 1-20 (inferred)) [SySA-44]")
-0.0761
>>> quantitative_readout("RGGRLCYCRRRFCVCVGR (disulfide (positions not given here)) [Protegrin]")
41.84
>>> quantitative_readout("CRVRININNGGRRVKLEVQC (disulfide 1-20 (inferred)) [SySA-32]")
0.0319
>>> quantitative_readout("CLRVRVNDRGSGVKITVEVC (disulfide 1-20 (inferred)) [SySA-39]")
0.28
>>> quantitative_readout("CLTVRVNNRGSGVKVSLEVC (disulfide 1-20 (inferred)) [SySA-54]")
1.51
